- Test target: Gastrin/cholecystokinin type B receptor (Homo sapiens)
- Sequence (P32239 whole entry): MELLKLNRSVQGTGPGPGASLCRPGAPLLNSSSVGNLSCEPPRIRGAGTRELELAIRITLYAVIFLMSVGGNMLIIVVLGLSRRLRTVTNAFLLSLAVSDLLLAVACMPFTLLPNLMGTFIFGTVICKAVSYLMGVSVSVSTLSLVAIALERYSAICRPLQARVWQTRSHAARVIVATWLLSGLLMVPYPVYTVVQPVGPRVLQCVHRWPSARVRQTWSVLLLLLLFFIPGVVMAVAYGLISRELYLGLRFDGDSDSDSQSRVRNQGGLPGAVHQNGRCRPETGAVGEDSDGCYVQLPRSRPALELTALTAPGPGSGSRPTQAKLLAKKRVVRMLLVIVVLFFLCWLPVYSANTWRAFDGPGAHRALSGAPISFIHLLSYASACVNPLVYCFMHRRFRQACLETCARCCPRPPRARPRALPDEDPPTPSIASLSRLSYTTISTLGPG
Reported endpoint: Ki (nM)
The figure you give is taken to be in nM; do not add the unit.

Any idea what Ki came out for C[C@@](N)(Cc1cn(C(=O)OC2C3CC4CC(C3)CC2C4)c2ccccc12)C(=O)NC[C@H](NC(=O)CCC(=O)O)c1ccccc1 (stereo partly specified) on Gastrin/cholecystokinin type B receptor (Homo sapiens)?
1.7

* * *

- Test target: Angiotensin-converting enzyme (Homo sapiens)
- Sequence (P12821 whole entry): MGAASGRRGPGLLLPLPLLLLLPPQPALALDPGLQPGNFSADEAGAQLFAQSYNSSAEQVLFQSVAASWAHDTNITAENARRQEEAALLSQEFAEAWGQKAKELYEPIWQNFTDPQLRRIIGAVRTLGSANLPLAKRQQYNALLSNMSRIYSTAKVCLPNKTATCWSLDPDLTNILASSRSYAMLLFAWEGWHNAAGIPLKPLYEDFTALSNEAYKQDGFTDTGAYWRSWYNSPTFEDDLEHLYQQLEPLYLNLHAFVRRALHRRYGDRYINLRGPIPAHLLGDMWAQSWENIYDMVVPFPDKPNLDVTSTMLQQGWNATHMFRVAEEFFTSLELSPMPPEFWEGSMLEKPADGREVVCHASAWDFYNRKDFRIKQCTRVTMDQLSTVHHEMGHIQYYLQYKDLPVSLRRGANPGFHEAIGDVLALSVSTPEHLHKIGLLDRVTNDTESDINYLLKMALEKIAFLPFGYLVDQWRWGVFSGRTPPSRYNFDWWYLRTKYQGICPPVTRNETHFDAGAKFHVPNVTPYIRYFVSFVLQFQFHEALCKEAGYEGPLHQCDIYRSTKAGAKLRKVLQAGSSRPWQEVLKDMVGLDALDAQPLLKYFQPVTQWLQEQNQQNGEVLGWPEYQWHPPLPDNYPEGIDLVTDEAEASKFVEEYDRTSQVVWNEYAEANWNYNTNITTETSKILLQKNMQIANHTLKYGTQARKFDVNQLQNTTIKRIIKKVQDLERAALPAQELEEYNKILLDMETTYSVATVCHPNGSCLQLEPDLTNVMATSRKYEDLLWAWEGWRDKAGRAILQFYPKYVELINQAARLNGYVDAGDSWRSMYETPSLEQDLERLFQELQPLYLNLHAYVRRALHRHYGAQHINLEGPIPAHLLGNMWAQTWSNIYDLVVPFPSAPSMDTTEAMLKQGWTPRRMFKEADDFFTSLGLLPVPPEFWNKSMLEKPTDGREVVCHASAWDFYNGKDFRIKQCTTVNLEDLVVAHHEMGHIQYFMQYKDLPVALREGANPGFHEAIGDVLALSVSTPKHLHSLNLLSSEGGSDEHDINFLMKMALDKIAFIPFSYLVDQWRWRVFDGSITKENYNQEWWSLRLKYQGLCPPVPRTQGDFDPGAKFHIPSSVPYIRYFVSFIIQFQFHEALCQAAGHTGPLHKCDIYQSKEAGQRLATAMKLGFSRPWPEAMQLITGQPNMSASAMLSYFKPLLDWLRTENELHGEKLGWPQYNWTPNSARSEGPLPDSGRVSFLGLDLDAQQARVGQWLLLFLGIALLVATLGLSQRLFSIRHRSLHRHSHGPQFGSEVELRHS
- Assay info: Inhibitory activity against Angiotensin I converting enzyme
Reported endpoint: pKi
Friendly reminder that pKi comes from taking -log10 of the concentration in mol/L.

Return reported pKi; argument: `H-EWPRPQIPP-OH`
7.00

Values were extracted from ChEMBL document CHEMBL1127221.
